System: Liver microsome
ASSAY DETAILS: Retention time of the compound in human liver microsomes at 5 uM preincubated for 5 mins followed by NADPH addition measured after 30 mins by LC/MS analysis
Assay type: ADME
TEST CONTEXT: 0.5 h
QUANTITY: Retention_time (min)
Please state the figure in min; there is no need to write the unit.

What reported Retention_time corresponds to `[CH]=CCc1c[nH]c2ccccc12` on Liver microsome? 6.829

What reported Retention_time corresponds to `[CH]=CCc1c[nH]c2ccc(F)cc12` on Liver microsome? 5.628

What reported Retention_time corresponds to `CCOP(=O)(OCC)C(CCc1c[nH]c2ccccc12)P(=O)(OCC)OCC` on Liver microsome? 8.142

What reported Retention_time corresponds to `[CH2]c1c[nH]c2ccccc12` on Liver microsome? 5.183

What reported Retention_time corresponds to `CCOP(=O)(OCC)C(CCc1c[nH]c2ccc(F)cc12)P(=O)(OCC)OCC` on Liver microsome? 8.365

* * *

Please provide measured logP for the entries that follow.
ASSAY DETAILS: Lipophilicity, log P of the compound
Format: physicochemical
TEST CONTEXT: octanol/water; read-out: logP

Please look up its logP: O=P(O)(O)C(Cl)(Cl)P(=O)(O)O [CLODRONATE DISODIUM] -2.4

Please look up its logP: CC(O)(P(=O)(O)O)P(=O)(O)O [ETIDRONATE DISODIUM] -3.8
